# Study target: Human MC1R (Homo sapiens, UniProt Q01726)
# Construct: endogenous in cells; host or cells: human melanoma cell line HBL
# Sequence (Q01726 whole entry): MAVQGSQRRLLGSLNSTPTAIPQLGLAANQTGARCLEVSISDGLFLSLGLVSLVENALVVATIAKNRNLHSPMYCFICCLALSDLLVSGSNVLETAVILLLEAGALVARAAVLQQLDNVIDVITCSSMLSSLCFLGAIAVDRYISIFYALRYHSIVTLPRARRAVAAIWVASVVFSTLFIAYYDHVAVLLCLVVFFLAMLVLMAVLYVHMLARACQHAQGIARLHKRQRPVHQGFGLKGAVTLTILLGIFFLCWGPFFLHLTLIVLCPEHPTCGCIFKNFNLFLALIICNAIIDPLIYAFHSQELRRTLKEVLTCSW
# Procedure summary: MCR agonist measurement (cAMP measurement), human MC1R agonist activity in human melanoma cell line HBL
# Assay type: cell-based
# Test conditions: Intrinsic Activity; vehicle cAMP = 0%, αMSH at 10^-6 M = 100%; HBL cells
Rule: measured Human MC1R IA % below 80% gets T; anything equal to or greater than 80% gets F.

COc1ccc([C@@H]2CN([C@H]3CC[C@H](OC)CC3)C[C@@]2(F)C(=O)N2CC[C@@H](c3ccc(C(F)(F)F)cc3N3CCC(C(=O)O)CC3)C2)cc1: F
COC[C@@H]1C[C@@H](c2ccc(C(F)(F)F)cc2N2CCC(C(=O)O)CC2)CN1C(=O)[C@]1(F)CN([C@H]2CC[C@H](OC)CC2)C[C@H]1c1ccc(OC)cc1: F
COc1ccc([C@@H]2CN(C(C)(C)C)C[C@@]2(F)C(=O)N2CCC(c3ccc(C(F)(F)F)cc3N3CCC(N(C)C)CC3)CC2)cc1: T
COC[C@H]1CN(C(=O)[C@]2(F)CN(C3CCCC3)C[C@H]2c2ccc(OC)cc2)C[C@@H]1c1ccc(C(F)(F)F)cc1N1CCC(C(=O)O)CC1: F
COc1ccc([C@@H]2CN(C(C)(C)C)C[C@@]2(F)C(=O)N2CCC(c3ccc(C(F)(F)F)cc3[C@H]3CC[C@H](C(=O)O)CC3)CC2)cc1: T
COc1ccc([C@@H]2CN(C3CCCC3)C[C@@]2(F)C(=O)N2CCCC(c3ccc(C(F)(F)F)cc3N3CCC(C(=O)O)CC3)C2)cc1 (single isomer, unassigned) [Example 292]: T
COc1ccc([C@@H]2CN(C(C)(C)C)C[C@@]2(F)C(=O)N2CCC(c3ccc(Cl)cc3N3CCC(C(=O)O)CC3)CC2)cc1: F
CCC(=O)N1CCC(N2C[C@@H](c3ccc(OC)cc3)[C@](F)(C(=O)N3C[C@H](COC)[C@@H](c4ccc(C(F)(F)F)cc4N4CCC(C(=O)O)CC4)C3)C2)CC1: T
COC[C@H]1CN(C(=O)[C@]2(F)CN(c3ccnc(C)c3)C[C@H]2c2ccc(OC)cc2)C[C@@H]1c1ccc(C(F)(F)F)cc1N1CCC(C(=O)O)CC1: F
COc1ccc([C@@H]2CN(C(C)(C)C)C[C@@]2(F)C(=O)N2CCC(c3ccc(C(F)(F)F)cc3OCCCc3nnn[nH]3)CC2)cc1.Cl: F

* * *

Form field: Human MC1R IA % (one value per entry).
# Study target: Human MC1R (Homo sapiens)
# Construct: endogenous in cells; host or cells: human melanoma cell line HBL
# Procedure summary: MCR agonist measurement (cAMP measurement), human MC1R agonist activity in human melanoma cell line HBL
# Type: cell-based
# Test conditions: Intrinsic Activity; vehicle cAMP = 0%, αMSH at 10^-6 M = 100%; HBL cells
Quantity kind: Human MC1R IA % (%)

COC[C@@H]1C[C@@H](c2ccc(C(F)(F)F)cc2N2CCC(C(=O)O)CC2)CN1C(=O)[C@]1(OC)CN(C2CCCCCC2)C[C@H]1c1ccc(OC)cc1: 85
COc1ccc([C@@H]2CN(C(C)(C)C)C[C@@]2(F)C(=O)N2C[C@H](CO)[C@@H](c3ccc(C(F)(F)F)cc3N3CCC(C(=O)O)CC3)C2)cc1.Cl.Cl: 109
CCO[C@H]1CC[C@H](N2C[C@@H](c3ccc(OC)cc3)[C@](OC)(C(=O)N3C[C@H](c4ccc(C(F)(F)F)cc4N4CCC(C(=O)O)CC4)[C@@](F)(COC)C3)C2)CC1: 105
COc1ccc([C@@H]2CN(C(C)(C)C)C[C@@]2(F)C(=O)N2CCC(c3ccc(C(F)(F)F)cc3-c3ccc(C(=O)O)cc3)CC2)cc1: 83
COC[C@H]1CN(C(=O)[C@]2(F)CN(C3CCOCC3)C[C@H]2c2ccc(OC)cc2)C[C@@H]1c1ccc(C(F)(F)F)cc1N1CCC(C(=O)O)CC1: 72
COC[C@@H]1C[C@@H](c2ccc(C(F)(F)F)cc2N2CCC(C(=O)O)CC2)CN1C(=O)[C@]1(F)CN([C@H]2CC[C@H](C#N)CC2)C[C@H]1c1ccc(OC)cc1: 96
CCO[C@H]1CC[C@H](N2C[C@@H](c3ccc(OC)cc3)[C@](OC)(C(=O)N3C[C@H](COC)[C@@H](c4ccc(C(F)(F)F)cc4N4CCC(C(=O)O)CC4)C3)C2)CC1: 98
COc1ccc([C@@H]2CN(C3CCOC3)C[C@@]2(F)C(=O)N2CCC(c3ccc(C(F)(F)F)cc3N3CCC(C(=O)O)CC3)CC2)cc1 (some centres unmarked) [Example 290]: 69
COc1ccc([C@@H]2CN(C(C)(C)C)C[C@@]2(F)C(=O)N2CCC(c3ccc(C(F)(F)F)cc3N3CCC(C(=O)N4CCCC4)CC3)CC2)cc1: 124
COc1ccc([C@@H]2CN(C(C)(C)CO)C[C@@]2(F)C(=O)N2CCC(c3ccc(C(F)(F)F)cc3N3CCC(C(=O)O)CC3)CC2)cc1: 79
COc1ccc([C@@H]2CN([C@H]3CC[C@H](OC)CC3)C[C@@]2(F)C(=O)N2C[C@H](c3ccc(C(F)(F)F)cc3N3CCC(C(=O)O)CC3)[C@@H](F)C2)cc1: 93
